Recorded values, source the supplement of paper PMC4466140.

Target entity: SpHof1
Assay comment: SPOT peptide array binding signal intensity (averaged, normalized) (arbitrary units (background-subtracted, floor 0; scale differs between SH3 domains)); higher = stronger binding of the SH3 domain to the peptide
Lab note: compare SPOT peptide array binding signal intensity against 30. Equal or greater, write class 1. Smaller, write class 0.

            binder  discrete_label
0  RPVPPPPPMRTTTEG         class 1
1  LPPPPPPPPPPPLPQ         class 0
2  EQEEIAPSLPSRNSI         class 0
3  AGKRRLPLVRFKASD         class 1
4  NQARKPFLLPATELS         class 0
5  MARRRLPDRPPNGIG         class 1
